Recorded measurements of soluble fraction (log2), one per entry
# Experiment: soluble fraction after stress (log2 fold change); higher = more stays soluble; pooled small domains, quantitative proteomics;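 note: 20 min heating vs room temperature control held 20 min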
# Condition Set: stress: 75 degC

>  <Sequence Chain>
HMQNREQNILDGKSILDKELKRVGLLNQSAAIMAQEMKFNSQDDLFAALGSGATRIGQIINHLQKQS

>  <soluble fraction (log2)>
-0.00272

$$$$
>  <Sequence Chain>
HMKTYEILFDILSRESDYISGEKLAQELGISRTSIWKAIQHLEKEGVHIESVKNKGYKLLSGDLLIAEKI

>  <soluble fraction (log2)>
-1.77

$$$$
>  <Sequence Chain>
HMNHAPSLMRKIRRGLKEGRNPDDLLVNAKSISDYYYRSLSFYLLAPHFSSKSKQYKQVISLANS

>  <soluble fraction (log2)>
-0.064

$$$$
>  <Sequence Chain>
HMKSQSIFNVKKGDTLSHIAVHVLKKNKQKVTPEAINKMVSNIAFRNKIKNPDLIFPGQKLVLEY

>  <soluble fraction (log2)>
-0.169

$$$$
>  <Sequence Chain>
HMSGPAEDLLAIEGMDKELAYELAARGIRTRDELADQSLDELEAVPGLDPVRAGQLIMAARAHLFENAGQ

>  <soluble fraction (log2)>
0.0744

$$$$
>  <Sequence Chain>
HMPQEMIEILATPNGWLRVRQGPGTNYPEITKVNSGEEFPLLEEKDSWFKIRIEEGQEGWISSQYAQKEE

>  <soluble fraction (log2)>
0.00978

$$$$
>  <Sequence Chain>
HMGRMSLDEAKAVILPIGEHKGHTMGEVLAIKPGLIDFYASQKFNSGKYPYLKEAAQVILENQG

>  <soluble fraction (log2)>
-0.0288

$$$$
>  <Sequence Chain>
HMAWAVRAGEGVLIRAGQPGFSATTRGTALSNGAIGEGVRVRNLGSGKEIQAWVVDKGEVETR

>  <soluble fraction (log2)>
0.00511

$$$$

* * *

Reported soluble fraction (log2) values for a set of sequences
# Experiment: soluble fraction after stress (log2 fold change); higher = more stays soluble; pooled small domains, quantitative proteomics
# Condition Set: stress: 75 degC

>  <Sequence Chain>
HMLNQIGVSQKEFDQIHTAIKIALKTSSLTPTGITEKLPKFPPEKTADILRWMADNKEVLLNSEEKYELKT

>  <soluble fraction (log2)>
-0.297

$$$$
>  <Sequence Chain>
HMNEDTEDIKNINSLVNKLTENNFDIIRDSIVKLINKEHLIPYIIETIIEKSILHHRYVHLYVSILKE

>  <soluble fraction (log2)>
0.219

$$$$
>  <Sequence Chain>
HMGYINLNVKVSPEWRDFWRSAYASVVAGYHQNKEHWNTIILDGSIPDKDIKRMIAESYDLVSD

>  <soluble fraction (log2)>
-0.561

$$$$
>  <Sequence Chain>
HMQDGVNLENIEQKLSTLGVGKAQYFLQNVGGNKFNAYMALNTDGVEGYQKGSDTLIEIKNVE

>  <soluble fraction (log2)>
0.215

$$$$

* * *

# Experiment: soluble fraction after stress (log2 fold change); higher = more stays soluble; pooled small domains, quantitative proteomics
# Condition Set: stress: 75 degC
Listing of recorded soluble fraction (log2) by entry.
Endpoint: soluble fraction (log2)

>  <Sequence Chain>
HMTLRDRDQALEELWGQLADVPMDSETERLLEPFMGWGVGVSRDEIWHWFDRRHSKGIGHLLYS

>  <Observed>
-1.42

$$$$
>  <Sequence Chain>
HMAEPEALLAMAQRILGEEVAQSLFQGAAREQGKEGYLPDPTPAFLDALEARLSGSVGAATAHAMISQLVG

>  <Observed>
-0.15

$$$$
>  <Sequence Chain>
HMEMKHKNSQIFQAIKLKHMGFTPTQISEELRVSRTTINHWLTKAQLKDVKWEDIRENSADELVKLLFG

>  <Observed>
-1.33

$$$$
>  <Sequence Chain>
HMDYNMEEWSLTADQLKSGDTILILNLGKTATLLESTRGKKNVRVRMGNIKTIVETSSIRGNPHQ

>  <Observed>
-1.77

$$$$

* * *

# Experiment: soluble fraction after stress (log2 fold change); higher = more stays soluble; pooled small domains, quantitative proteomics
# Condition Set: stress: 75 degC
Tick 1 (yes) if soluble fraction (log2) is -0.5 or greater. Tick 0 (no) if soluble fraction (log2) is less than -0.5.

>  <Sequence Chain>
HMKSYAQIAEILSGQQPNTSRKEGSNLAVHADWIDALIAKYGTALRPEEANEVVKKEIGIVFSHVLEN

>  <Assigned Class>
1 (yes)

$$$$
>  <Sequence Chain>
HMEELGKVRPELDGNEIAKVLGITPGPVLGRAYTYLLSVRLDEGPIGPDVARERLLAWWAEQPES

>  <Assigned Class>
0 (no)

$$$$
>  <Sequence Chain>
HMIAPQISSGKVNTKELNVRSGPATTFGIVKKLPLNAMVGIFEEKNGWFRIATGQWVSKTYVDL

>  <Assigned Class>
0 (no)

$$$$
>  <Sequence Chain>
HMVILPGEKMVVKIVQPGKEKGQGVGYLADGTMIVVDSGDKMIGQDVPTEITRVFQTVAGKMLFAVPVD

>  <Assigned Class>
0 (no)

$$$$
>  <Sequence Chain>
HMVLSKGAKELLDFIMREGEVTTSKVVQKFGGSAQNASAKLKKLYATGLILGSKAVAESGGLEFVYKA

>  <Assigned Class>
1 (yes)

$$$$
>  <Sequence Chain>
HMSSPVGIAQATTYVYVRAGHSMQAAKVGVLSPGEKVGVTGRSAQGFSEVVYNGVHRWVGSRYLSPT

>  <Assigned Class>
0 (no)

$$$$
>  <Sequence Chain>
HMISEWDAAYSYAKQYYEENGHLFVPKKYVTSEGAALGKWIWEQRDSYLGLSSYKISDKKIEMLEDIGMFW

>  <Assigned Class>
0 (no)

$$$$
>  <Sequence Chain>
HMEVVVPEDLDAALQQASRAQSFFSSLSYTHKKEYVAWINEAKRAETRAMRIQKTITMLESGQRGH

>  <Assigned Class>
0 (no)

$$$$
>  <Sequence Chain>
HMNVGKYILTLAAKEGYSQSDVARRTGISRQMLSYIIAGERKLTLPQALKIESLLSLKTGTLILMQDED

>  <Assigned Class>
0 (no)

$$$$
>  <Sequence Chain>
HMPAPAPDIPYHSRVSVRRADGFYEGTWTNTAPILDYTGRWMVNVSLGGKRVFVPVEEVVVH

>  <Assigned Class>
0 (no)

$$$$
>  <Sequence Chain>
HMDPEIADAVNTIKKYLESHYSEVITRKKIEELVHLNQDHINREFKKQTGYTLMEYVQHYRILMAKKMLRV

>  <Assigned Class>
0 (no)

$$$$
>  <Sequence Chain>
HMVVRKHDRYYTPEHRKLLMDTYERTNKYPTKQDMSELAKIIGVLPIKILWWYTHRRRQDRRKGEESSSP

>  <Assigned Class>
1 (yes)

$$$$
>  <Sequence Chain>
HMDNVQLRNFAIKATEASIIYLDQEQRNFFWYNNNKKLMTVPFDENPYSAFAAYLKTDEGSEVYKAIEKKF

>  <Assigned Class>
0 (no)

$$$$
>  <Sequence Chain>
HMLTSIDQMLKLAMPDSDITVSKMNGLILLTGTVKAPEDAAEAERLVQAFSAPPPGQPPVTVVSRLRTA

>  <Assigned Class>
1 (yes)

$$$$
>  <Sequence Chain>
HMGTAESIRLFLSSGLIKGVGEALAGRIVDTFGTDTFDIIENHPELLAGVKGISHRLAMSIYESFSQHIGV

>  <Assigned Class>
0 (no)

$$$$
>  <Sequence Chain>
HMGSLVQTAMQAVTKHIHDNAMRVGDTLPGEGHFAETLGVSRAVMREAFGALAALKLIDVGNGRKPRVGR

>  <Assigned Class>
0 (no)

$$$$
>  <Sequence Chain>
HMAKSETAKIKATPYGWLRVRDTPSLNGAEIARVNSGDEYKVLEKETGWIKIKVSDTVEGWVSDAYIELS

>  <Assigned Class>
1 (yes)

$$$$
>  <Sequence Chain>
HMPHTDATDKQIIALILETLKDGQKHSVSEMTFPGIPREKTAQLLHQMIEEETVRIQNGVLFLPH

>  <Assigned Class>
1 (yes)

$$$$
>  <Sequence Chain>
HMASANMPDVLGLDAETAKQVLAAKGFTKVEIYPMESSEPANRVVRQSEDRDTMVALTKEILLGVSNGS

>  <Assigned Class>
1 (yes)

$$$$
>  <Sequence Chain>
HMLSKEERRSQLLDLGVRLLSTRSLDELSIDLLAEEAGISRGLLYHYFGNKHDFHEAVVRRAADDLI

>  <Assigned Class>
0 (no)

$$$$
>  <Sequence Chain>
HMRPLISQTLRIDRGEGDIAGPLGVLAKEYPHLSMGSYPFQKDGIYGAHVVIRGSDPGMVEAAMDKLKAAF

>  <Assigned Class>
1 (yes)

$$$$
>  <Sequence Chain>
HMDASKVKIEDLGLSTRTENALVAASIRTAGGLARKSEMDLLSTDGLGEKGITEIKKALSDLGLELK

>  <Assigned Class>
1 (yes)

$$$$
>  <Sequence Chain>
HMPDRQKDIQNWQQIAETLLNMLDKYVAALETGKTGLAEAYKAIFAETLRRLDDRLDPEQFLP

>  <Assigned Class>
0 (no)

$$$$
>  <Sequence Chain>
HMEMDPKELGRQVLAKRKEKGWSQEQLGKMAEISRNYVSQIERGEADSISIKIINRLAIALGVSPSDLGE

>  <Assigned Class>
1 (yes)

$$$$
>  <Sequence Chain>
HMPTNSDRLIGSDGVVSSKIDNLQGTGKVYISGLTWSARTIDGSEAEEGDIVTVEKIEGATLYVTKR

>  <Assigned Class>
1 (yes)

$$$$
>  <Sequence Chain>
HMNREEFLSQLERLLYDIPAQEREEALEYYNGYFDDAGKEKEAEVIQELGSPGKVAAIIKADLSG

>  <Assigned Class>
1 (yes)

$$$$
>  <Sequence Chain>
HMMEERVIEFANVLRRNGVRVSLAENMDAFRALKSLGISDPLLFRHALRATLIKRGSDIQPFEELFDFFFL

>  <Assigned Class>
0 (no)

$$$$
>  <Sequence Chain>
HMTTTPTSQMVTELRSRGWTLRALAQRLGVGHASINRWANGVTPDRDLVAALRALVASGEVP

>  <Assigned Class>
0 (no)

$$$$
>  <Sequence Chain>
HMQSEESTHIGERMLNQALRAMHVEPSAVKEKQWEKLIRDYSVKNKQDILTDIGLGKRQSVMVAHQLLAI

>  <Assigned Class>
1 (yes)

$$$$
>  <Sequence Chain>
HMGSALLEAGADDAGQRLDQWLAAKLGPSISRSRVQALIKQGAVLVGGKPAGEAKRKLVAGDVVSVALPEP

>  <Assigned Class>
1 (yes)

$$$$
>  <Sequence Chain>
HMKEETYHYTVRYVTDGGDILASYEGKATKDSVFFPEVKTFDGYTAVRGEEPMFHLVSDHAVFQIVYQKNG

>  <Assigned Class>
0 (no)

$$$$
>  <Sequence Chain>
HMGTESFGARIRKIREARDWTPAALAEATGQTPEFVARVERDEVAPPVAFLLRLAAALGVDPSTF

>  <Assigned Class>
0 (no)

$$$$
